meta.source: ChEMBL document CHEMBL5058577

- Test system: U2OS
- method notes: Multiplex assay against U2OS
- Type: toxicity, cell-based
- run conditions: human, 24 h, 10 µM, compound concentration 10 uM, replicate 1
Task for the reader: assign each of the following compounds its reported Population Apoptotic (%).
Answers are plain numbers, in %.

Sample records with Population Apoptotic (%):
Cc1cc(O)c(-c2ccc([C@@H](C)CN(C)C)cc2)c2c1[nH]c(=O)c1sccc12 ... 81
OCCCNc1cc(-c2ccnc(Nc3cccc(Cl)c3)n2)ccn1 ... 88
COc1ccc2[nH]c(I)c(CCNC(C)=O)c2c1 [IODOMELATONIN] ... 95
CCc1nn2c(C)cc(C)nc2c1Cc1ccc(-c2nnc(C3CCNCC3)o2)cc1 ... 77
COC(c1ccccc1)(c1ccccc1)[C@H](Oc1nc(C)cc(C)n1)C(=O)O [AMBRISENTAN] ... 84

Would you mind listing Population Apoptotic (%) for each of the following compounds?
1. C[C@H](NC(=O)CNC(=O)c1cccc(Cl)c1)c1ccccc1
2. COc1cc(Nc2ncc3c(n2)-c2ccc(Cl)cc2C(c2c(F)cccc2OC)=NC3)ccc1C(=O)O [ALISERTIB]
3. CC(C)C[C@H](CO)Nc1nc(S[C@@H](C)c2ccccc2)nc2nc(N)sc12 [AZD-8797]
4. CSc1nc(NC2CCCC2)c([N+](=O)[O-])c(NC2CCCC2)n1 [GS-39783]

Output line:
1: 90; 2: 84; 3: 76; 4: 85

Value sought for every listed compound: Population Apoptotic (%).
1. O=C(Nc1cc(-c2ccccc2)nn1-c1ccccc1F)c1ccc([N+](=O)[O-])cc1
2. CN1CCN(c2ccc(Nc3c4ccccc4nc4ccccc34)cc2)CC1.Cl.Cl.O
3. CCn1c(-c2nc3cc(C(=O)N4CCCC(N)C4)ccc3n2C)cc2ccccc21.Cl (stereo not drawn)
4. Cc1cc(NC(=O)NCCN2CCC(O)(Cc3ccccc3)CC2)c2ccccc2n1 [PALOSURAN]
5. Cc1c(Cc2ccc3ccccc3n2)c2cc(F)ccc2n1CC(=O)O [TIMAPIPRANT]

Output line:
91
100
62
92
94

For each entry beneath this line, provide reported Population Apoptotic (%).
1. Cc1ccc(OCC(O)C(C)NC(C)C)c2c1CCC2.Cl (stereo not drawn)
2. CN(C)C(=O)Cn1cc(-c2ccc(-c3nnc4ccccn34)cc2)cn1
3. CN(C)C/C=C/C(=O)Nc1ccc(C(=O)N2CCCC(Nc3ncc(Cl)c(-c4c[nH]c5ccccc45)n3)C2)cc1 (stereo not drawn)
4. CCCCC[C@H](O)/C=C/[C@H]1[C@H](O)CC(=O)[C@@H]1CCCCCCC(=O)O [ALPROSTADIL]

Output line:
1: 82; 2: 86; 3: 87; 4: 94
